Attribution: the SangsterLogP compilation

Listed below: logP values for each entry.
Lab note: write the figure by itself, no unit.

Worked cases, logP given:
compoundSmiles | logP
O=C(Nc1ccc2nn(C3CCCC3)nc2c1)c1ccc(Cl)cc1 | 4.11
COc1cc(C(=O)Nc2ccc3nn(C4CCCC4)nc3c2)cc(OC)c1OC | 3.87
CC(C)(C)C(=O)c1cccc2nn(C3CCCC3)nc12 | 3.4
O=C(Nc1ccc2nn(C3CCCC3)nc2c1)C(Cl)Cl | 3.4
Cc1ccc(S(=O)(=O)Nc2ccc3nn(C4CCCC4)nc3c2)cc1 | 3.91

Enquiry: I would be grateful if you could share the reported logP for `CC(=O)N(C(C)=O)c1ccc2nn(C3CCCC3)nc2c1` .
Return: 2.73

Enquiry: I would be grateful if you could share the reported logP for `O=[N+]([O-])c1ccc(S(=O)(=O)Nc2ccc3nn(C4CCCC4)nc3c2)cc1` .
Return: 3.82

Enquiry: I would be grateful if you could share the reported logP for `O=C(Nc1ccc2nn(C3CCCC3)nc2c1)c1ccc(Cl)c(Cl)c1` .
Return: 5.32
